Values compiled from patent US20250304620A1.

- Test system: Pseudomonas aeruginosa ATCC 27853
- Protocol description: Injectable formulations on mice infected with peritonitis
- Assay type: in vivo, ICR mice
- Test conditions: 1 mg/kg via tail vein, twice a day for 3 days, n = 10
Non-standard residues stand in square brackets, D forms with d. Residues, ends and D or L forms follow the SMILES beside them. d2Nal = N[C@H](Cc1ccc2ccccc2c1)C(=O)O
Quantity measured: Number of mice that died on each day after infection: day 1 (Mouse)

| Compound | Reported |
| --- | --- |
| CC(=O)N[C@H](CCCCN)C(=O)N[C@H](CCCNC(=N)N)C(=O)N[C@H](CC(C)C)C(=O)N[C@H](CC(C)C)C(=O)N[C@H](Cc1ccc2ccccc2c1)C(=O)N[C@H](CCCCN)C(=O)N[C@H](CC(C)C)C(=O)N[C@H](CCCCN)C(=O)N[C@H](Cc1ccc2ccccc2c1)C(=O)N[C@H](CCCCN)C(=O)N[C@H](CCCNC(=N)N)C(N)=O [LV-23] (Ac-[dK][dR][dL][dL][d2Nal][dK][dL][dK][d2Nal][dK][dR]-NH2) | 1 |
| CC(=O)N[C@H](CCCNC(=N)N)C(=O)N[C@H](CCCCN)C(=O)N[C@H](CC(C)C)C(=O)N[C@H](CC(C)C)C(=O)N[C@H](Cc1ccccc1)C(=O)N[C@H](CCCNC(=N)N)C(=O)N[C@H](CC(C)C)C(=O)N[C@H](CCCCN)C(=O)N[C@H](Cc1ccc2ccccc2c1)C(=O)N[C@H](CCCNC(=N)N)C(=O)N[C@H](CCCCN)C(N)=O [LV-3] (Ac-[dR][dK][dL][dL][dF][dR][dL][dK][d2Nal][dR][dK]-NH2) | 1 |
| CC(=O)N[C@H](CCCNC(=N)N)C(=O)N[C@H](CCCNC(=N)N)C(=O)N[C@H](CC(C)C)C(=O)N[C@H](CC(C)C)C(=O)N[C@H](Cc1ccc2ccccc2c1)C(=O)N[C@H](CCCNC(=N)N)C(=O)N[C@H](CC(C)C)C(=O)N[C@H](CCCNC(=N)N)C(=O)N[C@H](Cc1ccc2ccccc2c1)C(=O)N[C@H](CCCNC(=N)N)C(=O)N[C@H](CCCNC(=N)N)C(N)=O [LV-1] (Ac-[dR][dR][dL][dL][d2Nal][dR][dL][dR][d2Nal][dR][dR]-NH2) | 0 |

---

- Tested on: Staphylococcus aureus ATCC 25923
- Format: cell-based
Non-standard residues stand in square brackets, D forms with d. Residues, ends and D or L forms follow the SMILES beside them. dPhe(3,4-Cl2) = N[C@H](Cc1ccc(Cl)c(Cl)c1)C(=O)O; d2Nal = N[C@H](Cc1ccc2ccccc2c1)C(=O)O; d(hLeu) = CC(C)CC[C@@H](N)C(=O)O; dNva = CCC[C@@H](N)C(=O)O
Documented MIC Staphylococcus aureus ATCC 25923 across a set of compounds
Quantity measured: MIC Staphylococcus aureus ATCC 25923 (µg/mL)

| Compound | Output unit | Reported |
| --- | --- | --- |
| CC(=O)N[C@H](CCCNC(=N)N)C(=O)N[C@H](CCCCN)C(=O)N[C@H](CCC(C)C)C(=O)N[C@H](CCC(C)C)C(=O)N[C@H](Cc1ccc2ccccc2c1)C(=O)N[C@H](CCCNC(=N)N)C(=O)N[C@H](CCC(C)C)C(=O)N[C@H](CCCCN)C(=O)N[C@H](Cc1ccc2ccccc2c1)C(=O)N[C@H](CCCNC(=N)N)C(=O)N[C@H](CCCCN)C(N)=O [LV-14] (Ac-[dR][dK][d(hLeu)][d(hLeu)][d2Nal][dR][d(hLeu)][dK][d2Nal][dR][dK]-NH2) | µg/mL | 2 |
| CC(=O)N[C@H](CCCNC(=N)N)C(=O)N[C@H](CCCCN)C(=O)N[C@H](C)C(=O)N[C@H](C)C(=O)N[C@H](Cc1ccc2ccccc2c1)C(=O)N[C@H](CCCNC(=N)N)C(=O)N[C@H](C)C(=O)N[C@H](CCCCN)C(=O)N[C@H](Cc1ccc2ccccc2c1)C(=O)N[C@H](CCCNC(=N)N)C(=O)N[C@H](CCCCN)C(N)=O [LV-15] (Ac-[dR][dK][dA][dA][d2Nal][dR][dA][dK][d2Nal][dR][dK]-NH2) | µg/mL | 2 |
| CCC[C@@H](NC(=O)[C@@H](CCCCN)NC(=O)[C@@H](CCCNC(=N)N)NC(C)=O)C(=O)N[C@H](CCC)C(=O)N[C@H](Cc1ccc2ccccc2c1)C(=O)N[C@H](CCCNC(=N)N)C(=O)N[C@H](CCC)C(=O)N[C@H](CCCCN)C(=O)N[C@H](Cc1ccc2ccccc2c1)C(=O)N[C@H](CCCNC(=N)N)C(=O)N[C@H](CCCCN)C(N)=O [LV-13] (Ac-[dR][dK][dNva][dNva][d2Nal][dR][dNva][dK][d2Nal][dR][dK]-NH2) | µg/mL | 2 |
| CC(=O)N[C@H](CCCNC(=N)N)C(=O)N[C@H](CCCCN)C(=O)N[C@H](CC(C)C)C(=O)N[C@H](CC(C)C)C(=O)N[C@H](Cc1ccc2ccccc2c1)C(=O)N[C@H](CCCNC(=N)N)C(=O)N[C@H](CC(C)C)C(=O)N[C@H](CCCCN)C(=O)N[C@H](Cc1ccc2ccccc2c1)C(=O)N[C@H](CCCNC(=N)N)C(=O)N[C@H](CCCCN)C(N)=O [LV-20] (Ac-[dR][dK][dL][dL][d2Nal][dR][dL][dK][d2Nal][dR][dK]-NH2) | µg/mL | 1 |
| CC(=O)N[C@H](CCCNC(=N)N)C(=O)N[C@H](CCCCN)C(=O)N[C@H](CC(C)C)C(=O)N[C@H](CC(C)C)C(=O)N[C@H](Cc1ccc(Cl)c(Cl)c1)C(=O)N[C@H](CCCCN)C(=O)N[C@H](CC(C)C)C(=O)N[C@H](CCCCN)C(=O)N[C@H](Cc1ccc(Cl)c(Cl)c1)C(=O)N[C@H](CCCCN)C(=O)N[C@H](CCCNC(=N)N)C(N)=O [LV-8] (Ac-[dR][dK][dL][dL][dPhe(3,4-Cl2)][dK][dL][dK][dPhe(3,4-Cl2)][dK][dR]-NH2) | µg/mL | 1 |
